# TESTED ON: PPARγ (Homo sapiens, UniProt P37231)
# Sequence (P37231 1-505): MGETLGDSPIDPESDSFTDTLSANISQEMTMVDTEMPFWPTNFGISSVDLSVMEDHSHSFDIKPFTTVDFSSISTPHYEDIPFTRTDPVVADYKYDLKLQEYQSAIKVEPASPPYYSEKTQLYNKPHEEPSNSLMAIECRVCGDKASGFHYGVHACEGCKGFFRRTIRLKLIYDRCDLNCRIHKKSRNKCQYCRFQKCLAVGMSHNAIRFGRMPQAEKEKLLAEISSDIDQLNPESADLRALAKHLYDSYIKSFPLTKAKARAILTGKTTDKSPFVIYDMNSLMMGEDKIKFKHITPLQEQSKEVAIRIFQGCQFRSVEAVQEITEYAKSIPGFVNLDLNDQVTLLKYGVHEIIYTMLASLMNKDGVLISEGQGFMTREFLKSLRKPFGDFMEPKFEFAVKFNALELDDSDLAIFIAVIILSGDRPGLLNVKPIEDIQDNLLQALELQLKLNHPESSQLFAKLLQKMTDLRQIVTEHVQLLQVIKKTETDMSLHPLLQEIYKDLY
pKi: −log10 of the molar value.

| COMPOUND | pKi |
| --- | --- |
| O=c1c(-c2ccc(O)cc2)coc2cc(O)cc(O)c12 | 5.24 |
| CCCc1c(OCCCCc2nnn[nH]2)ccc(C(C)=O)c1O [LY 171883, reference compound] | 5.38 |
